Source listed as paper PMC11247503.

Listed here are molecules together with their documented inhibition at 0.3 µM.
Target: mouse Spns2 (Mus musculus, UniProt Q91VM4)
Construct: expressed in transfected cells; host or cells: HeLa cells (G418-resistant pools)
Sequence (Q91VM4 1-549): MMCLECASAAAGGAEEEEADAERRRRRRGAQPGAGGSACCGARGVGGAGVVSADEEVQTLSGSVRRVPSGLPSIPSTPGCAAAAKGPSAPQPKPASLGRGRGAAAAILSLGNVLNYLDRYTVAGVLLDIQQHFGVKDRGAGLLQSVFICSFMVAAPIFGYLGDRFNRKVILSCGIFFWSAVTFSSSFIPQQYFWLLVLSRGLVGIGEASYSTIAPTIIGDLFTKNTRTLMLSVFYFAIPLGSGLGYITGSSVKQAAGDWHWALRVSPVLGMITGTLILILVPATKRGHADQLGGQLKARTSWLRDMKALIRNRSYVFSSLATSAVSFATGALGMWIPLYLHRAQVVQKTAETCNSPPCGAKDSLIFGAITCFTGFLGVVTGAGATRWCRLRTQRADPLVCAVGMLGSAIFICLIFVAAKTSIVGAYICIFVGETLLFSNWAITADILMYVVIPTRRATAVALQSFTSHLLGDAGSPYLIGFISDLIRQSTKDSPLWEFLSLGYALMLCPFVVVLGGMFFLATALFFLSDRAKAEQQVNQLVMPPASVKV
Assay: HeLa cell S1P release assay (Spns2 inhibition)
Type: cell-based
Settings: HeLa, 0.3 μM inhibitor (Figure 5); HeLa cells; read-out: % Inhibition, tail homologation study

- MOLECULE: "CCCCCCCCCCCCc1ccc(NC(=O)N2CCNCC2)cc1 [20f]"
  MEASUREMENT_UNITS: "%"
  inhibition at 0.3 µM: 57
- MOLECULE: "CCCCCCc1ccc(NC(=O)N2CCNCC2)cc1 [20a]"
  MEASUREMENT_UNITS: "%"
  inhibition at 0.3 µM: 19
- MOLECULE: "CCCCCCCCCCCc1ccc(NC(=O)N2CCNCC2)cc1 [20e]"
  MEASUREMENT_UNITS: "%"
  inhibition at 0.3 µM: 76
- MOLECULE: "CCCCCCCc1ccc(NC(=O)N2CCNCC2)cc1 [20b]"
  MEASUREMENT_UNITS: "%"
  inhibition at 0.3 µM: 28
- MOLECULE: "CCCCCCCCc1ccc(NC(=O)N2CCNCC2)cc1 [20c]"
  MEASUREMENT_UNITS: "%"
  inhibition at 0.3 µM: 48
- MOLECULE: "CCCCCCCCCc1ccc(NC(=O)N2CCNCC2)cc1 [20d]"
  MEASUREMENT_UNITS: "%"
  inhibition at 0.3 µM: 61
- MOLECULE: "CCCCCCCCCCCCCc1ccc(NC(=O)N2CCNCC2)cc1 [20g]"
  MEASUREMENT_UNITS: "%"
  inhibition at 0.3 µM: 27

----------
Molecular target: mouse Spns2 (Mus musculus, UniProt Q91VM4)
Construct: expressed in transfected cells; host or cells: HeLa cells (G418-resistant pools)
Test: HeLa cell S1P release assay (Spns2 inhibition)
Type: cell-based
Conditions: HeLa, 1 μM inhibitor; HeLa cells; S1P in media by LC-MS/MS; read-out: %Inhib. (Spns2 inhibition, percent decrease in S1P secretion relative to control)

- COMPOUND: "CCCCCCCCCCc1ccc(C(=O)N[C@H]2CCCNC2)cc1 [(S)-4f]"
  ASSAYED_SYSTEM: "mouse Spns2 (Mus musculus, UniProt Q91VM4)"
  VALUE_PREFIX: "="
  inhibition at 1 µM / %: 20
- COMPOUND: "CCCCCCCCCCc1ccc(NC(=O)N[C@H]2CCCNC2)cc1 [(S)-11f]"
  ASSAYED_SYSTEM: "mouse Spns2 (Mus musculus, UniProt Q91VM4)"
  VALUE_PREFIX: "="
  inhibition at 1 µM / %: 78
- COMPOUND: "CCCCCCCCCCc1ccc(C(=O)N2CC3CC2CN3)cc1 (stereo not shown)"
  ASSAYED_SYSTEM: "mouse Spns2 (Mus musculus, UniProt Q91VM4)"
  VALUE_PREFIX: "="
  inhibition at 1 µM / %: 25
- COMPOUND: "CCCCCCCCCCc1ccc(NC(=O)O[C@@H]2CCNC2)cc1 [(R)-8b]"
  ASSAYED_SYSTEM: "mouse Spns2 (Mus musculus, UniProt Q91VM4)"
  VALUE_PREFIX: "="
  inhibition at 1 µM / %: 68
- COMPOUND: "CCCCCCCCCCc1ccc(NC(=O)N2CCC(N)CC2)cc1 [11g]"
  ASSAYED_SYSTEM: "mouse Spns2 (Mus musculus, UniProt Q91VM4)"
  VALUE_PREFIX: "="
  inhibition at 1 µM / %: 59
- COMPOUND: "CCCCCCCCCCc1ccc(NC(=O)NC2CCNCC2)cc1 [11h]"
  ASSAYED_SYSTEM: "mouse Spns2 (Mus musculus, UniProt Q91VM4)"
  VALUE_PREFIX: "="
  inhibition at 1 µM / %: 34
- COMPOUND: "CCCCCCCCCCc1ccc(N(C)C(=O)N2CC3CC2CN3)cc1 (stereo not shown) [17b]"
  ASSAYED_SYSTEM: "mouse Spns2 (Mus musculus, UniProt Q91VM4)"
  VALUE_PREFIX: "="
  inhibition at 1 µM / %: 24
- COMPOUND: "CCCCCCCCCCc1ccc(NC(=O)N2CCCNCC2)cc1 [11m]"
  ASSAYED_SYSTEM: "mouse Spns2 (Mus musculus, UniProt Q91VM4)"
  VALUE_PREFIX: "="
  inhibition at 1 µM / %: 72
- COMPOUND: "CCCCCCCCCCc1ccc(C(=O)N(C)CCCN)cc1 [13a]"
  ASSAYED_SYSTEM: "mouse Spns2 (Mus musculus, UniProt Q91VM4)"
  VALUE_PREFIX: "="
  inhibition at 1 µM / %: 39
- COMPOUND: "CCCCCCCCCCc1ccc(C(=O)N(C)[C@@H]2CCNC2)cc1 [(R)-13b]"
  ASSAYED_SYSTEM: "mouse Spns2 (Mus musculus, UniProt Q91VM4)"
  VALUE_PREFIX: "="
  inhibition at 1 µM / %: 21
- COMPOUND: "CCCCCCCCCCc1ccc(C(=S)N[C@@H]2CCNC2)cc1 [(R)-15b]"
  ASSAYED_SYSTEM: "mouse Spns2 (Mus musculus, UniProt Q91VM4)"
  VALUE_PREFIX: "="
  inhibition at 1 µM / %: 33
- COMPOUND: "CCCCCCCCCCc1ccc(C(=O)N2CCNCC2C)cc1 (racemic) [(±)-4j]"
  ASSAYED_SYSTEM: "mouse Spns2 (Mus musculus, UniProt Q91VM4)"
  VALUE_PREFIX: "="
  inhibition at 1 µM / %: 61
- COMPOUND: "CCCCCCCCCCc1ccc(C(=O)N[C@@H]2CCCNC2)cc1 [(R)-4e]"
  ASSAYED_SYSTEM: "mouse Spns2 (Mus musculus, UniProt Q91VM4)"
  VALUE_PREFIX: "="
  inhibition at 1 µM / %: 73
- COMPOUND: "CCCCCCCCCCc1ccc(NC(=O)OC2CCNCC2)cc1"
  ASSAYED_SYSTEM: "mouse Spns2 (Mus musculus, UniProt Q91VM4)"
  VALUE_PREFIX: "="
  inhibition at 1 µM / %: 51
- COMPOUND: "CCCCCCCCCCc1ccc(N(C)C(=O)N2CC3CCC(C2)N3)cc1 [17c]"
  ASSAYED_SYSTEM: "mouse Spns2 (Mus musculus, UniProt Q91VM4)"
  VALUE_PREFIX: "="
  inhibition at 1 µM / %: 18
- COMPOUND: "CCCCCCCCCCc1ccc2nc(NC[C@H]3CCNC3)oc2c1.Cl"
  ASSAYED_SYSTEM: "mouse Spns2 (Mus musculus, UniProt Q91VM4)"
  VALUE_PREFIX: "="
  inhibition at 1 µM / %: 85
- COMPOUND: "CCCCCCCCCCc1ccc(NC(=O)N2CC3CC2CN3)cc1 (stereo not shown) [11j]"
  ASSAYED_SYSTEM: "mouse Spns2 (Mus musculus, UniProt Q91VM4)"
  VALUE_PREFIX: "="
  inhibition at 1 µM / %: 35
- COMPOUND: "CCCCCCCCCCc1ccc(C(=O)N2CC3CCC(C2)N3)cc1"
  ASSAYED_SYSTEM: "mouse Spns2 (Mus musculus, UniProt Q91VM4)"
  VALUE_PREFIX: "="
  inhibition at 1 µM / %: 0
- COMPOUND: "CCCCCCCCCCc1ccc(NC(=O)N2CCNCC2)cc1.Cl [11i]"
  ASSAYED_SYSTEM: "mouse Spns2 (Mus musculus, UniProt Q91VM4)"
  VALUE_PREFIX: "≥"
  inhibition at 1 µM / %: 80
- COMPOUND: "CCCCCCCCCCc1ccc(NC(=O)N2CC[N+](C)(C)CC2)cc1 [18b]"
  ASSAYED_SYSTEM: "mouse Spns2 (Mus musculus, UniProt Q91VM4)"
  VALUE_PREFIX: "="
  inhibition at 1 µM / %: 5
- COMPOUND: "CCCCCCCCCCc1ccc(C(=S)N[C@@H]2CCCNC2)cc1 [(R)-15c]"
  ASSAYED_SYSTEM: "mouse Spns2 (Mus musculus, UniProt Q91VM4)"
  VALUE_PREFIX: "="
  inhibition at 1 µM / %: 47
- COMPOUND: "CCCCCCCCCCc1ccc(NC(=O)O[C@H]2CCNC2)cc1 [(S)-8c]"
  ASSAYED_SYSTEM: "mouse Spns2 (Mus musculus, UniProt Q91VM4)"
  VALUE_PREFIX: "="
  inhibition at 1 µM / %: 46
